Molecular target: Lysyl oxidase homolog 2 (Homo sapiens)
Sequence (Q9Y4K0 whole entry): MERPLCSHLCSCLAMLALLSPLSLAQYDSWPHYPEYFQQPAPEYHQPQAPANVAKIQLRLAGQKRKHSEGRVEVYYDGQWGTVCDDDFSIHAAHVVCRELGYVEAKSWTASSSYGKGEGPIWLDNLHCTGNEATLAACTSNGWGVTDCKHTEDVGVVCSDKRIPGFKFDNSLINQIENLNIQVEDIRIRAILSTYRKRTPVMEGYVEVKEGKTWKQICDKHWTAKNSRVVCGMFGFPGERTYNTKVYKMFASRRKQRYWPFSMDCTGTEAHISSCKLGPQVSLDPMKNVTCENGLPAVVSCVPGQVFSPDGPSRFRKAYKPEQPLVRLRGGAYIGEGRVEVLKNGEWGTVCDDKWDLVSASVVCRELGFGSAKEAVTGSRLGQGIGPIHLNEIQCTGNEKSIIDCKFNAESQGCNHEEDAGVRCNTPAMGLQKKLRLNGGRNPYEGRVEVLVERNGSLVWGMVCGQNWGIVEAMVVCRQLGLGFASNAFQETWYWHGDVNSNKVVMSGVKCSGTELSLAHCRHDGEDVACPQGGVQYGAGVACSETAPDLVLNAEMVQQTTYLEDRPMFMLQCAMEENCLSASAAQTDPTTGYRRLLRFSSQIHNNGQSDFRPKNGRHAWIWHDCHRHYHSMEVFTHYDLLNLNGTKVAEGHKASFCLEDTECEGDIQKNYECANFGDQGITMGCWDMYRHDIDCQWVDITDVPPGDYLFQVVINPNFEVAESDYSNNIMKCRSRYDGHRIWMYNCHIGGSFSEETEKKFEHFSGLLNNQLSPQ
Test: Inhibition of full length recombinant human LOXL2 expressed in CHO cells assessed as reduction in H2O2 production using DAP as substrate preincubated for 2 hrs followed by substrate addition measured every 2 minutes for 50 minutes by Amplex red dye based fluorescence assay
pIC50: −log10 of the molar value.
Label scheme for pIC50: lower than 6 is not fulfilled, 6 and above is fulfilled.

Below are worked cases with known answers.
Problem: pIC50 >= 6 for NCc1ccnc(Cl)c1 ?
Solution: fulfilled

Problem: Exam item: decide whether the reported pIC50 for NCc1ccnc(F)c1 is at least 6.
Solution: fulfilled

Problem: State whether the measured pIC50 reaches 6, counting equality as reaching it, for NCc1ccnc(-n2ccnc2)c1
Solution: fulfilled

Problem: Can CNCc1ccc(C#N)cc1 be said to have pIC50 at or above 6?
Solution: not fulfilled

Problem: Would you say NCc1cc(-c2cccnc2)ncc1C(F)(F)F shows pIC50 at minimum 6?
Solution: not fulfilled

Others:
Problem: Textbook exercise: given the entry COC(=O)c1ccc(CN)cc1 , state whether its pIC50 is greater than or equal to 6.
Solution: not fulfilled

Problem: # check: pIC50 of NCc1ccccc1 [BENZYLAMINE] is greater than or equal to 6
Solution: not fulfilled

Problem: API: above_or_equal(metric=pIC50, cutoff=6) for item N#CCCN
Solution: fulfilled

Problem: Does the compound COC(=O)c1cccc(CN)c1 have recorded pIC50 that is 6 or more?
Solution: not fulfilled

Problem: Can NCc1ccnc2ccccc12 be said to have pIC50 at or above 6?
Solution: not fulfilled

Problem: Record NCCc1ccccc1 [PHENETHYLAMINE] ; criterion: pIC50 no lower than 6. Met?
Solution: not fulfilled

Problem: Could you tell me if the measured pIC50 of N[C@@H]1C[C@H]1c1ccccc1.N[C@H]1C[C@@H]1c1ccccc1 [TRANYLCYPROMINE] reaches 6 or more?
Solution: not fulfilled
